// provenance: patent US20160319032A1

Target: T1, human αVβ6 integrin on cells (human, UniProt P06756 31-1048; P18564 22-788)
T1 construct: whole, on cells; Species is stated for K562 and CHO transfectants only
T1 sequence (P06756 31-1048, chain 1 of 2): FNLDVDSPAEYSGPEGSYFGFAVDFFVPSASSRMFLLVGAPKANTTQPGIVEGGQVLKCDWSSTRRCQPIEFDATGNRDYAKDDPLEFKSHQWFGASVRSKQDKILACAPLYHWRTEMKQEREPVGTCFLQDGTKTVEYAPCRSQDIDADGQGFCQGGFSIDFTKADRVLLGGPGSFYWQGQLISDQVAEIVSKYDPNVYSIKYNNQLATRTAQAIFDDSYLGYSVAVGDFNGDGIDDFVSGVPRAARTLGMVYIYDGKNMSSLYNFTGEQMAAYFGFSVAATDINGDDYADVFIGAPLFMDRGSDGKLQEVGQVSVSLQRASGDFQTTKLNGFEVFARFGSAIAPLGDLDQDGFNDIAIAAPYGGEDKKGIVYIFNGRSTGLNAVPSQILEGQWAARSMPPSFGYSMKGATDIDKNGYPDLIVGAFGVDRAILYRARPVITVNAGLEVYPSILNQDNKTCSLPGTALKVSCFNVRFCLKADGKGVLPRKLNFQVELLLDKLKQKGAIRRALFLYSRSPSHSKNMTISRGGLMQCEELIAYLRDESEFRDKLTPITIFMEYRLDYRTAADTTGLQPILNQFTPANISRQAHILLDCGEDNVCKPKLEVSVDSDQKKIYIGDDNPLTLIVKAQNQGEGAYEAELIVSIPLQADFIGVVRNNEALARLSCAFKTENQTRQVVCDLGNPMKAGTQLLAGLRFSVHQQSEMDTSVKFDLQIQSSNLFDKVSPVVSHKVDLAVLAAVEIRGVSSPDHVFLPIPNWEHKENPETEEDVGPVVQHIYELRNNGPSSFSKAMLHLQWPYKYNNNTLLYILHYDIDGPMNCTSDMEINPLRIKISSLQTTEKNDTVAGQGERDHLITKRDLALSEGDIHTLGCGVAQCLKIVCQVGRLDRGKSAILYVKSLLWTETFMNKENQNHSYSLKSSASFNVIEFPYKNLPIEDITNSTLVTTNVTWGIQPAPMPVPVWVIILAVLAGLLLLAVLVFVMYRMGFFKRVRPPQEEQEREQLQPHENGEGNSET
T1 sequence (P18564 22-788, chain 2 of 2): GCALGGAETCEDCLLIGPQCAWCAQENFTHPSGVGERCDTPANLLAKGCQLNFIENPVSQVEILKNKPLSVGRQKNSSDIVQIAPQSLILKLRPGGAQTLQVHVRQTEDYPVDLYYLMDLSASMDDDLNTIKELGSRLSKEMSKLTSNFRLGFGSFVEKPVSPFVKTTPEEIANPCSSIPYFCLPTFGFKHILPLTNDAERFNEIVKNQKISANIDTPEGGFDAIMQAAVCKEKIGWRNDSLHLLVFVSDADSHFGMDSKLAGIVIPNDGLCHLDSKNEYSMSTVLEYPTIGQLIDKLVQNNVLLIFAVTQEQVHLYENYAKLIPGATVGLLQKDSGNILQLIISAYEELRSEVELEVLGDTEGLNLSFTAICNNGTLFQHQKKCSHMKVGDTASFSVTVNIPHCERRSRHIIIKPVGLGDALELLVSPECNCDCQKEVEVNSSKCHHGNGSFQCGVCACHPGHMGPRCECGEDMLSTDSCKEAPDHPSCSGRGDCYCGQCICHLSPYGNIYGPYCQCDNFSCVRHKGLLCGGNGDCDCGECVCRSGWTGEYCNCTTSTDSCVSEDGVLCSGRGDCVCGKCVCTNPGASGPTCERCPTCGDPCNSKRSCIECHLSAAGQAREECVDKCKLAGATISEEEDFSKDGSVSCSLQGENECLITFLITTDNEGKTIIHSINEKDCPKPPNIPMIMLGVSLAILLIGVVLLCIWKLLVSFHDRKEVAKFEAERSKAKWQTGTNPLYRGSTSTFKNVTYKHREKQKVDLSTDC
Experiment: FMAT, supernatant, HEK 293 cells stably overexpressing αVβ6
endpoint-name: FMAT FL1XCount
Reply with the value as a number alone.

Param item = sc 188 (antibody, V domains shown, kappa light chain) VH: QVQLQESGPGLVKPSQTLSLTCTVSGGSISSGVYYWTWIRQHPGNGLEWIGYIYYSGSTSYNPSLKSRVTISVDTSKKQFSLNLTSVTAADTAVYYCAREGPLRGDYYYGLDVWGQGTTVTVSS VL: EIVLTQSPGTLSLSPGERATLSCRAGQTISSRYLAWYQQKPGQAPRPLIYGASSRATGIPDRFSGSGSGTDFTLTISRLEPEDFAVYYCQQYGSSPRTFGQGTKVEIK ; retrieve measured FMAT FL1XCount.
79800
